Assay: Short term HFD mouse model: plasma and liver exposure
Assay type: in vivo
Conditions: HFD mice, three oral doses of 10 mg/kg over two days, 4 h after final dose
readout-kind: liver exposure 4 h

smiles-text: N#Cc1cccc(C#N)c1-c1c(-c2cccc(-c3cc(F)c(C(=O)O)cc3Cl)c2)n(S(=O)(=O)c2ccc(C(F)F)cc2)c2ccc(F)cc12
readout-kind: liver exposure 4 h
result: C (1 μM to ≤10 μM)
--
smiles-text: N#Cc1cccc(C#N)c1-c1c(-c2cccc(-c3ccc(C(=O)NCC(=O)O)cc3Cl)c2)n(S(=O)(=O)c2ccc(C(F)F)cc2)c2ccc(F)cc12
readout-kind: liver exposure 4 h
result: C (1 μM to ≤10 μM)

----------
Assay: Phase 1 study, MAD cohorts: plasma pharmacokinetics
Format: in vivo, human
Details: both sexes, human, plasma, oral, 6 mg, healthy subjects, MAD Day 14, 6 mg, fed; median
readout-kind: Tmax (h)

smiles-text: N#Cc1cccc(C#N)c1-c1c(-c2cccc(-c3ccc(C(=O)NCC(=O)O)cc3Cl)c2)n(S(=O)(=O)c2ccc(C(F)F)cc2)c2ccc(F)cc12
result: 3.5

----------
Listed here: items and their measured pEC50.
Molecular target: GST-LXRβ ligand-binding domain (Homo sapiens)
Construct: amino acids 156-461; NP009052
Sequence (P55055 156-460 limits assumed): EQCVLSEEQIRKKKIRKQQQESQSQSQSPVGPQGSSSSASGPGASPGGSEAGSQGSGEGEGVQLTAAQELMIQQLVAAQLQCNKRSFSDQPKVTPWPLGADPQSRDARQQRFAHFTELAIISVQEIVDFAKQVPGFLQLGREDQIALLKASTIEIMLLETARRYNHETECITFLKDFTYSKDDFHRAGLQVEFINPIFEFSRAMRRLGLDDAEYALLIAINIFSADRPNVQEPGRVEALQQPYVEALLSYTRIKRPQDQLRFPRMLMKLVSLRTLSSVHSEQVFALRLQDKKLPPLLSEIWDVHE
Test: TR-FRETβ activity assay (NCoA3 coactivator peptide recruitment)
Details: 1 μM 24(S)-25-epoxycholesterol prestimulation
pEC50: −log10 of the molar value.

smiles-text: O=S(=O)(c1ccc(Cl)cc1)n1c(-c2cccs2)c(-c2ccsc2C(F)F)c2ccccc21
pEC50: 6.00 to 7.00
//
smiles-text: O=C(O)c1ccc(-c2cccc(-c3c(-c4cccc5oncc45)c4cc(F)ccc4n3S(=O)(=O)c3ccc(C(F)F)cc3)c2)c(Cl)c1
pEC50: 6.00 to 7.00
//
smiles-text: N#Cc1cccc(C#N)c1-c1c(-c2cccc(-c3ccc(C(=O)O)c(F)c3F)c2)n(S(=O)(=O)c2ccc(C(F)F)cc2)c2ccc(F)cc12
pEC50: > 7.00
//
smiles-text: O=C(O)c1ccc(-c2cccc(-c3c(-c4c(C(F)F)cccc4C(F)F)c4cc(F)ccc4n3S(=O)(=O)c3ccc(C(F)F)cc3)c2)c(Cl)c1
pEC50: > 7.00
//
smiles-text: N#Cc1sccc1-c1c(-c2cccs2)n(S(=O)(=O)c2ccc(Cl)cc2)c2cc(OCCCCC(=O)O)ccc12
pEC50: 5.00 to 6.00
//
smiles-text: N#Cc1sccc1-c1c(-c2cccc(-c3cc(F)c(C(=O)O)cc3Cl)c2)n(S(=O)(=O)c2ccc(C(F)F)cc2)c2ccc(F)cc12
pEC50: > 7.00
//
smiles-text: Cc1ccc(S(=O)(=O)n2c(-c3cccc(-c4ccc(C(=O)O)cc4)c3)c(-c3ccsc3C#N)c3cc(F)ccc32)cc1
pEC50: 6.00 to 7.00

----------
Experiment: Phase 1 study, SAD cohorts: plasma pharmacokinetics
Type: in vivo, human
Settings: both sexes, human, oral, Day 1, 0.5 mg, plasma, median
readout-kind: half-life

smiles-text: N#Cc1cccc(C#N)c1-c1c(-c2cccc(-c3ccc(C(=O)NCC(=O)O)cc3Cl)c2)n(S(=O)(=O)c2ccc(C(F)F)cc2)c2ccc(F)cc12
readout-kind: half-life
result: 2.1 h

----------
Molecular target: GST-LXRβ ligand-binding domain (Homo sapiens)
Construct: amino acids 156-461; NP009052
Test: TR-FRETβ activity assay (NCoA3 coactivator peptide recruitment)
Details: 1 μM 24(S)-25-epoxycholesterol prestimulation
pEC50: −log10 of the molar value.
Listed here: items and their measured pEC50.

compound: COc1cccc(-c2c(-c3cccc(-c4ccc(C(=O)O)cc4Cl)c3)n(S(=O)(=O)c3ccc(C)cc3)c3ccc(F)cc23)c1C#N [11/3]
pEC50: > 7.00
--
compound: N#Cc1sccc1-c1c(-c2cncs2)n(S(=O)(=O)c2ccc(Cl)cc2)c2ccccc12 [Compound 25]
pEC50: 5.00 to 6.00
--
compound: Cc1ccc(S(=O)(=O)n2c(-c3cccc(N4CC(C(=O)O)C4)c3)c(-c3ccsc3C#N)c3cc(F)ccc32)cc1 [3/32]
pEC50: 6.00 to 7.00
--
compound: N#Cc1sccc1-c1c(-c2cccs2)n(S(=O)(=O)c2ccc(Cl)cc2)c2cc(OCC(=O)O)ccc12 [15/3]
pEC50: < 5.00
--
compound: N#Cc1cccc(C#N)c1-c1c(-c2cccc(-c3ccc(C(=O)NCCS(=O)(=O)O)cc3Cl)c2)n(S(=O)(=O)c2ccc(C(F)F)cc2)c2ccc(F)cc12 [10/1]
pEC50: > 7.00
--
compound: N#Cc1ccccc1-c1c(-c2cccc(-c3ccc(C(=O)O)cc3F)c2)n(S(=O)(=O)c2ccc(C(F)F)cc2)c2ccc(F)cc12 [11/31]
pEC50: > 7.00
--
compound: Cc1ccc(S(=O)(=O)n2c(-c3cccc(C4CC4C(=O)O)c3)c(-c3ccsc3C#N)c3ccccc32)cc1 (centres unmarked) [Compound 30]
pEC50: 6.00 to 7.00
--
compound: N#Cc1c(OCC(=O)O)cccc1-c1c(-c2cccs2)n(S(=O)(=O)c2ccc(Cl)cc2)c2ccccc12 [21/2]
pEC50: 5.00 to 6.00
--
compound: Cn1cccc(-c2c(-c3cccc(-c4ccc(C(=O)O)cc4Cl)c3)n(S(=O)(=O)c3ccc(C(F)F)cc3)c3ccc(F)cc23)c1=O [11/47]
pEC50: 6.00 to 7.00
--
compound: COc1ccc(S(=O)(=O)n2c(-c3ccccc3)c(-c3ccc4ncccc4c3C#N)c3ccccc32)cc1 [20/20]
pEC50: 5.00 to 6.00
--
compound: N#Cc1cccc(C#N)c1-c1c(-c2cccc(-c3c(F)cc(OCC(=O)O)cc3F)c2)n(S(=O)(=O)c2ccc(C(F)F)cc2)c2ccc(F)cc12 [3/71]
pEC50: > 7.00
--
compound: CC1(C)CCN(S(=O)(=O)n2c(-c3cccc(-c4ccc(C(=O)O)cc4)c3)c(-c3ccsc3C#N)c3ccccc32)CC1 [3/66]
pEC50: 5.00 to 6.00
--
compound: N#Cc1cccc(C#N)c1-c1c(-c2cccc(C34CCC(C(=O)O)(CC3)CC4)c2)n(S(=O)(=O)c2ccc(C(F)F)cc2)c2ccc(F)cc12 [11/58]
pEC50: > 7.00
--
compound: Cc1ccc(S(=O)(=O)n2c(-c3cccc(-c4ccc(C(=O)O)cc4Cl)c3)c(-c3cccc(F)c3C#N)c3cc(F)ccc32)cc1 [11/1]
pEC50: > 7.00

Cited source for all entries: patent US20260083704A1
